Assay: BSK_BE3C_SRB: Viability Assessment in the BioMAP Diversity Plus: BE3C Assay (AID 2283028);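 further: measured 24 h after chemical dosing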
Conditions: primary human bronchial epithelial cells
The source made the active and inactive calls. How the source made its calls: active means hit-call score of the fitted dose curve at least 0.9, where 1 is the maximum; inactive means score below 0.9.
Outcome codes: active, inactive

>  <Compound>
O=C(Nc1ccccc1-c1ccc(Cl)cc1)c1cccnc1Cl

>  <Category Label>
inactive

$$$$
>  <Compound>
CCCCOCN(C(=O)CCl)c1c(CC)cccc1CC

>  <Category Label>
active

$$$$
>  <Compound>
CCN(CC)c1nc(C)cc(OP(=S)(OC)OC)n1

>  <Category Label>
inactive

$$$$
>  <Compound>
CC(C)NC(=O)N1CC(=O)N(c2cc(Cl)cc(Cl)c2)C1=O

>  <Category Label>
inactive

$$$$
>  <Compound>
COCC(C)N(C(=O)CCl)c1c(C)csc1C (configuration not stated)

>  <Category Label>
inactive

$$$$
>  <Compound>
CCN(CC)C(=O)C(C)Oc1cccc2ccccc12 (configuration not stated)

>  <Category Label>
inactive

$$$$
>  <Compound>
CN=C=S

>  <Category Label>
inactive

$$$$

====

Experiment: BSK_4H_Eotaxin3: BioMAP Diversity Plus: 4H Assay for Eotaxin 3 Biomarker Activity (AID 2283000)
Details: primary human endothelial cells (HUVEC); actives raise or lower the signal
Activity calls are given as the source filed them. The calls were made as follows: active = hit-call score of the fitted dose curve at least 0.9, where 1 is the maximum; inactive = score below 0.9.
Classes used: y (active), n (inactive)

>  <Molecule>
CCOC(=O)C(C)OC(=O)c1cc(Oc2ccc(C(F)(F)F)cc2Cl)ccc1[N+](=O)[O-] (stereo not given)

>  <Category Label>
n

$$$$
>  <Molecule>
CCSC(=O)N1CCCCCC1

>  <Category Label>
n

$$$$
>  <Molecule>
Nc1c(Cl)c(Cl)nc(C(=O)O)c1Cl

>  <Category Label>
n

$$$$
>  <Molecule>
OC(c1ccc(Cl)cc1)(c1ccc(Cl)cc1)C(Cl)(Cl)Cl

>  <Category Label>
y

$$$$
>  <Molecule>
CCNP(=S)(OC)O/C(C)=C/C(=O)OC(C)C (stereo not given)

>  <Category Label>
n

$$$$
>  <Molecule>
CCN(CC)C(=O)C(C)Oc1cccc2ccccc12 (stereo not given)

>  <Category Label>
y

$$$$
>  <Molecule>
CS(=O)(=O)c1ccc(C(=O)C2C(=O)CCCC2=O)c([N+](=O)[O-])c1

>  <Category Label>
n

$$$$
>  <Molecule>
COC(=O)N(C(=O)N1CO[C@@]2(C(=O)OC)Cc3cc(Cl)ccc3C2=N1)c1ccc(OC(F)(F)F)cc1

>  <Category Label>
n

$$$$
>  <Molecule>
CC1(C)CON(Cc2ccccc2Cl)C1=O

>  <Category Label>
n

$$$$
>  <Molecule>
CCOP(=S)(OCC)Oc1nc(Cl)n(C(C)C)n1

>  <Category Label>
n

$$$$
>  <Molecule>
COC(=O)NS(=O)(=O)c1ccc(N)cc1

>  <Category Label>
n

$$$$
>  <Molecule>
CO/N=C(/C1=NOCCO1)c1ccccc1Oc1ncnc(Oc2ccccc2Cl)c1F

>  <Category Label>
y

$$$$
>  <Molecule>
Cc1c(COC(=O)[C@@H]2[C@H](/C=C(\Cl)C(F)(F)F)C2(C)C)cccc1-c1ccccc1

>  <Category Label>
n

$$$$
>  <Molecule>
CN=C=S

>  <Category Label>
n

$$$$
>  <Molecule>
CNC(=O)Oc1cccc2ccccc12

>  <Category Label>
y

$$$$
>  <Molecule>
Cn1c(-c2ccccc2)cc(-c2ccccc2)[n+]1C

>  <Category Label>
n

$$$$
>  <Molecule>
O=C(O)c1c(Cl)ccc2cc(Cl)cnc12

>  <Category Label>
n

$$$$
>  <Molecule>
CCCN(CC)CC1COC2(CCC(C(C)(C)C)CC2)O1 (stereo not given)

>  <Category Label>
n

$$$$
>  <Molecule>
CCOP(=O)(OCC)Oc1nc(Cl)c(Cl)cc1Cl

>  <Category Label>
y

$$$$
>  <Molecule>
CCNC(=O)NC(=O)C(C#N)=NOC

>  <Category Label>
n

$$$$
>  <Molecule>
COC(=O)c1c(C(F)F)nc(C(F)(F)F)c(C2=NCCS2)c1CC(C)C

>  <Category Label>
y

$$$$
>  <Molecule>
CCCC(=NOCC)C1=C(O)CC(CC(C)SCC)CC1=O (stereo not given)

>  <Category Label>
n

$$$$
>  <Molecule>
CCN(CC)c1nc(C)cc(OP(=S)(OC)OC)n1

>  <Category Label>
n

$$$$
>  <Molecule>
O=C1C2CC=CCC2C(=O)N1SC(Cl)(Cl)Cl (stereo not given)

>  <Category Label>
n

$$$$
>  <Molecule>
Cc1cnc(C2=NC(C)(C(C)C)C(=O)N2)c(C(=O)O)c1 (stereo not given)

>  <Category Label>
n

$$$$
